Assay: Caco-2 permeability / efflux study
Assay type: in vitro ADME
Settings: human, Caco-2, pH 7.4, Caco-2 efflux ratio, 10 μM
Procedure: Incubations with Caco-2 cell monolayers were performed in duplicate in a 96-well Transwell plate. Transport buffer solution (HBSS, 10 mM HEPES, pH 7.4, with 0.5% BSA) containing test article (10 μM), and either the control compounds metoprolol (10 μM), cimetidine (10 μM) and erythromycin (10 μM), was added to appropriate donor wells of the apical or basolateral plate. The transport buffer with DMSO was added to appropriate wells of receiver wells. […]
MEASURED_METRIC: efflux ratio at 2 h, 10 μM

A. CN=S(=O)(c1ccc(-n2ccn(-c3c4c(nn3-c3cc(C)c(F)c(C)c3)CCN(C(=O)c3cc5cc(C6CCOCC6)ccc5n3[C@@]3(c5noc(=O)[nH]5)C[C@@H]3C)[C@H]4C)c2=O)c(F)c1)C1CC1 (single isomer, unassigned) [Compound 221]
B. CN=S(=O)(c1ccc(-n2ccn(-c3c4c(nn3-c3cc(C)c(F)c(C)c3)CCN(C(=O)c3cc5cc([C@H]6CCOC(C)(C)C6)ccc5n3[C@@]3(c5noc(=O)[nH]5)C[C@@H]3C)[C@H]4C)c2=O)c(F)c1C)C1CC1 (single isomer, unassigned) [Compound 195]
Prompt: Please tell me which of the two, A or B , has the higher reported efflux ratio at 2 h, 10 μM value. Please identify the chosen entry by its label.
Completion: A
(A: 38.5, B: 12)

====

Biological target: GLP-1 Receptor (Homo sapiens, UniProt P43220)
Sequence (P43220 24-463, species assumed): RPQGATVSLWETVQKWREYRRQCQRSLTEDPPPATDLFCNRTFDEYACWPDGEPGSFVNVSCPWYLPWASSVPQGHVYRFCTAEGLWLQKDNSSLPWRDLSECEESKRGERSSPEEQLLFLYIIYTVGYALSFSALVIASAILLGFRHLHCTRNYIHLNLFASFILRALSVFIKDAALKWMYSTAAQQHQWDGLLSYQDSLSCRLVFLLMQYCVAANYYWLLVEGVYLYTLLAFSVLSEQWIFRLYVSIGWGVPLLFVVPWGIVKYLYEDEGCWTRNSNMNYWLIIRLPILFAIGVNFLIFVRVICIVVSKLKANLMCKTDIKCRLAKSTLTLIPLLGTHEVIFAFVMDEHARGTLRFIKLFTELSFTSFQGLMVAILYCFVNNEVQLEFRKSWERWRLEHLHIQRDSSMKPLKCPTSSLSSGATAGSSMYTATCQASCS
Experiment: GLP-1R agonist cAMP stimulation assay (HEK293/GLP1R/CRE-LUC cells, Cisbio cAMP dynamic 2 kit)
Format: cell-based
Settings: Table 3, HEK293/GLP1R/CRE-LUC cells, 30 min
pEC50: −log10 of the molar value.
MEASURED_METRIC: pEC50

P. CCS(=O)(=NC)c1ccc(-n2ccn(-c3c4c(nn3-c3cc(C)c(F)c(C)c3)CCN(C(=O)c3cc5cc(C6CCOCC6)ccc5n3[C@@]3(c5noc(=O)[nH]5)C[C@@H]3C)[C@H]4C)c2=O)cc1 (single isomer, unassigned)
Q. Cc1cc(-n2nc3c(c2-n2ccn(-c4ccc(S(C)(=N)=O)cc4)c2=O)[C@H](C)N(C(=O)c2cc4cc(C5CCOCC5)ccc4n2[C@@]2(c4noc(=O)[nH]4)C[C@@H]2C)CC3)cc(C)c1F (single isomer, unassigned) [Compound 115]
Prompt: Please tell me which of the two, P or Q , has the higher reported pEC50 value. Please identify the chosen entry by its label.
Completion: P

====

Molecular target: UniProtKB P43220
Assay: GLP-1R agonist cAMP stimulation assay (HEK293/GLP1R/CRE-LUC cells, Cisbio cAMP dynamic 2 kit)
Type: cell-based
Conditions: Table 3, HEK293/GLP1R/CRE-LUC cells, 30 min
MEASURED_METRIC: EC50 (nM)

Below, each entry is followed by its recorded EC50 result.
{"columns": ["COMPOUND", "EC50 / nM"],
 "data": [
  ["Cc1cc(-n2nc3c(c2-n2ccn(-c4ccc5c(c4)C=CS(C)(=O)=N5)c2=O)[C@H](C)N(C(=O)c2cc4cc([C@H]5CCOC(C)(C)C5)ccc4n2[C@@]2(c4noc(=O)[nH]4)C[C@@H]2C)CC3)cc(C)c1F (single isomer, unassigned) [Compound 231]", 0.014],
  ["Cc1cc(-n2nc3c(c2-n2ccn(-c4ccc5c(c4F)CCN=S5(C)=O)c2=O)[C@H](C)N(C(=O)c2cc4cc([C@H]5CCOC(C)(C)C5)ccc4n2[C@@]2(c4noc(=O)[nH]4)C[C@@H]2C)CC3)cc(C)c1F (single isomer, unassigned) [Compound 186]", 0.0047],
  ["CN=S1(=O)CCC(Oc2ccc(-n3ccn(-c4c5c(nn4-c4cc(C)c(F)c(C)c4)CCN(C(=O)c4cc6cc(C7CCOCC7)ccc6n4[C@@]4(c6noc(=O)[nH]6)C[C@@H]4C)[C@H]5C)c3=O)cc2C(F)F)CC1 (single isomer, unassigned) [Compound 234]", 0.058]
]}

1. Cc1cc(-n2nc3c(c2-n2ccn(-c4ccc5c(c4)CS(C)(=O)=N5)c2=O)[C@H](C)N(C(=O)c2cc4cc([C@H]5CCOC(C)(C)C5)ccc4n2[C@@]2(c4noc(=O)[nH]4)C[C@@H]2C)CC3)cc(C)c1F (stereo partly shown) [Compound 227]
2. CCS(=O)(=NC)c1ccc(-n2ccn(-c3c4c(nn3-c3cc(C)c(F)c(C)c3)CCN(C(=O)c3cc5cc(C6CCOCC6)ccc5n3CC3CCCO3)[C@H]4C)c2=O)cc1 (stereo partly shown) [Compound 163]
Prompt: Please tell me which of the two, 1 or 2 , has the higher reported EC50 value. Please identify the chosen entry by its label.
Completion: 2
(2: 20 nM, 1: 0.015 nM)

====

Target: UniProt P43220
Experiment: GLP-1R agonist cAMP stimulation assay (HEK293/GLP1R/CRE-LUC cells, Cisbio cAMP dynamic 2 kit)
Type: cell-based
Conditions: Table 3, HEK293/GLP1R/CRE-LUC cells, 30 min
MEASURED_METRIC: EC50 (pM)

{"columns": ["COMPOUND", "EC50 [pM]"],
 "data": [
  ["CCS(=N)(=O)c1ccc(-n2ccn(-c3c4c(nn3-c3cc(C)c(F)c(C)c3)CCN(C(=O)c3cc5cc(C6CCOCC6)ccc5n3[C@@]3(c5noc(=O)[nH]5)C[C@@H]3C)[C@H]4C)c2=O)c(F)c1 (single isomer, unassigned) [Compound 139]", 62],
  ["CN=S1(=O)CCC(Oc2ccc(-n3ccn(-c4c5c(nn4-c4cc(C)c(F)c(C)c4)CCN(C(=O)c4cc6cc([C@H]7CCOC(C)(C)C7)ccc6n4[C@@]4(c6noc(=O)[nH]6)C[C@@H]4C)[C@H]5C)c3=O)cc2C2CC2)CC1 (single isomer, unassigned) [Compound 236]", 53]
]}

1. Cc1cc(-n2nc3c(c2-n2ccn(-c4ccc(CS(C)(=N)=O)cc4F)c2=O)[C@H](C)N(C(=O)c2cc4cc(C5CCOCC5)ccc4n2[C@@]2(c4noc(=O)[nH]4)C[C@@H]2C)CC3)cc(C)c1F (single isomer, unassigned) [Compound 174]
2. CN=S(=O)(c1ccc(-n2ccn(-c3c4c(nn3-c3cc(C)c(F)c(C)c3)CCN(C(=O)c3cc5cc([C@H]6CCOC(C)(C)C6)ccc5n3[C@@]3(c5noc(=O)[nH]5)C[C@@H]3C)[C@H]4C)c2=O)c(F)c1C(C)C)C1CC1 (single isomer, unassigned) [Compound 219]
Prompt: Please tell me which of the two, 1 or 2 , has the higher reported EC50 value. Please identify the chosen entry by its label.
Completion: 2
(2: 193 pM, 1: 67 pM)

====

Biological target: UniProt P43220
Experiment: GLP-1R agonist cAMP stimulation assay (HEK293/GLP1R/CRE-LUC cells, Cisbio cAMP dynamic 2 kit)
Type: cell-based
Settings: Table 3, HEK293/GLP1R/CRE-LUC cells, 30 min
Method: Activation of GLP-1 receptor is known to stimulate cyclic AMP (cAMP) production in cells which indicates primary coupling to the G as subunit of the G protein heterotrimeric complex. […] After incubation the cAMP assay signal was generated using cAMP dynamic 2 Kit (Cisbio). […] Read the fluorescence at 665 and 615 nm with Reader PerkinElmer EnVision. % oActivity=100%×(mean RLU of test sample−mean RLU of vehicle control)/(mean RLU of MAX control−mean RLU of vehicle control)
pEC50: −log10 of the molar value.
MEASURED_METRIC: pEC50

{"columns": ["COMPOUND", "pEC50"],
 "data": [
  ["Cc1cc(-n2nc3c(c2-n2ccn(-c4ccc(S5(=O)=NCCC5)cc4)c2=O)[C@H](C)N(C(=O)c2cc4cc(C5CCOCC5)ccc4n2C2(c4nsc(=O)[nH]4)CC2)CC3)cc(C)c1F (single isomer, unassigned) [Compound 130]", 9.64]
]}

A. CN=S(=O)(c1ccc(-n2ccn(-c3c4c(nn3-c3cc(C)c(F)c(C)c3)CCN(C(=O)c3cc5cc([C@H]6CCOC(C)(C)C6)ccc5n3[C@@]3(c5noc(=O)[nH]5)C[C@@H]3C)[C@H]4C)c2=O)c(F)c1C)C1CC1 (single isomer, unassigned) [Compound 196]
B. Cc1cc(-n2nc3c(c2-n2ccn(-c4ccc5c(c4)CCCN=S5(=O)C4CC4)c2=O)[C@H](C)N(C(=O)c2cc4cc([C@H]5CCOC(C)(C)C5)ccc4n2[C@@]2(c4noc(=O)[nH]4)C[C@@H]2C)CC3)cc(C)c1F (single isomer, unassigned) [Compound 213]
Prompt: Please tell me which of the two, A or B , has the higher reported pEC50 value. Please identify the chosen entry by its label.
Completion: A
(A: 10.41, B: 9.92)

====

Assay: Caco-2 permeability / efflux study
Type: in vitro ADME
Conditions: human, Caco-2, pH 7.4, 10 μM, 37° C., pH 7.4, 0.5% BSA, read-out: Caco-2 Perm
MEASURED_METRIC: Papp at 2 h, 10 μM (×10⁻⁶ cm/s)

{"columns": ["MOLECULE", "Papp at 2 h, 10 μM, ×10⁻⁶ cm/s"],
 "data": [
  ["Cc1cc(-n2nc3c(c2-n2ccn(-c4ccc5c(cnn5C)c4F)c2=O)[C@H](C)N(C(=O)c2cc4cc([C@H]5CCOC(C)(C)C5)ccn4c2C2(c4noc(=O)[nH]4)CC2)CC3)cc(C2CC2)c1F [Compound C-6, reference compound]", 0.16]
]}

P. CN=S(=O)(c1ccc(-n2ccn(-c3c4c(nn3-c3cc(C)c(F)c(C)c3)CCN(C(=O)c3cc5cc(C6CCOCC6)ccc5n3[C@@]3(c5noc(=O)[nH]5)C[C@@H]3C)[C@H]4C)c2=O)c(F)c1)C1CC1 (single isomer, unassigned)
Q. Cc1cc(-n2nc3c(c2-n2ccn(-c4ccc5c(cnn5C)c4F)c2=O)[C@H](C)N(C(=O)c2cc4cc([C@H]5CCOC(C)(C)C5)ccc4n2[C@@]2(c4noc(=O)[nH]4)C[C@@H]2C)CC3)cc(C)c1F [Compound C-5, reference compound]
Prompt: Field: lower recorded Papp at 2 h, 10 μM (choose P or Q ) Please identify the chosen entry by its label.
Completion: Q
(Q: 0.21 ×10⁻⁶ cm/s, P: 0.34 ×10⁻⁶ cm/s)
